Let's look at some molecules and their measured CC50.
Tested on: HL-60
Assay: Cytotoxicity against human HL60 cells after 24 hrs
Type: functional
Conditions: HL-60, 24 h

Illustrative cases are given below, each with its answer.
{"Structure String": "COc1ccc(/C=C2\\CCC/C(=C\\c3ccc([N+](=O)[O-])cc3)C2=O)c(OC)c1OC", "Measurement Kind": "CC50", "Result": "> 400 µM"}
{"Structure String": "CN(C)c1ccc(/C=C2\\CCC/C(=C\\c3cccc([N+](=O)[O-])c3)C2=O)cc1", "Measurement Kind": "CC50", "Result": "30 µM"}
{"Structure String": "Cc1ccc(/C=C2\\CCC/C(=C\\c3cccc([N+](=O)[O-])c3)C2=O)cc1", "Measurement Kind": "CC50", "Result": "38 µM"}

Fill in: CC50 of COc1ccc(/C=C2\CCC/C(=C\c3ccc([N+](=O)[O-])cc3)C2=O)cc1 is ___
> 400 µM

Fill in: CC50 of O=C1/C(=C/c2ccc(F)cc2)CCC/C1=C\c1ccccc1[N+](=O)[O-] is ___
3 µM

Fill in: CC50 of O=C1/C(=C/c2ccc(Cl)cc2)CCC/C1=C\c1ccc([N+](=O)[O-])cc1 is ___
4.1 µM

###

Test system: HL-60
Experiment: Cytotoxicity against human HL60 cells after 24 hrs
Type: functional
Settings: HL-60, 24 h
Let's look at some compounds and their measured log10 of CC50.
Note: values are log10 of CC50 expressed in µM.

{"Structure String": "O=C1/C(=C/c2ccc(Cl)cc2)CCC/C1=C\\c1ccccc1[N+](=O)[O-]", "log10 of CC50": 0.88}

// below: log10 of CC50 requested for another compound
Fill in: log10 of CC50 of O=C1/C(=C/c2ccc(Cl)cc2)CCC/C1=C\c1cccc([N+](=O)[O-])c1 is ___
0.51

###

Experiment: Cytotoxicity against human HPC cells after 24 hrs
Type: cell-based
Conditions: HPC cells
Measurement Kind: CC50 at 24 h (µM)
Only the number, expressed in µM, is required.

{"Structure String": "COc1cc(/C=C2\\CCC/C(=C\\c3ccc([N+](=O)[O-])cc3)C2=O)cc(OC)c1OC", "Measurement Kind": "CC50 at 24 h", "Numeric Readout": 347}

// below: CC50 at 24 h requested for another compound
Fill in: CC50 at 24 h of O=C1/C(=C/c2ccc(Cl)cc2)CCC/C1=C\c1ccc([N+](=O)[O-])cc1 is ___
345

###

Let's look at some compounds and their measured CC50.
Experiment: Cytotoxicity against human HGF cells after 24 hrs
Type: cell-based
Details: hgf, 24 h

{"Structure String": "COc1ccc(/C=C2\\CCC/C(=C\\c3ccccc3[N+](=O)[O-])C2=O)cc1", "CC50": "> 400 µM"}
{"Structure String": "CN(C)c1ccc(/C=C2\\CCC/C(=C\\c3cccc([N+](=O)[O-])c3)C2=O)cc1", "CC50": "> 400 µM"}
{"Structure String": "COc1cc(OC)c(/C=C2\\CCC/C(=C\\c3ccc([N+](=O)[O-])cc3)C2=O)c(OC)c1", "CC50": "> 400 µM"}

Fill in: CC50 of COc1ccc(/C=C2\CCC/C(=C\c3ccc([N+](=O)[O-])cc3)C2=O)c(OC)c1OC is ___
> 400 µM

Fill in: CC50 of CN(C)c1ccc(/C=C2\CCC/C(=C\c3ccc([N+](=O)[O-])cc3)C2=O)cc1 is ___
> 400 µM

Fill in: CC50 of O=C1/C(=C/c2ccc(Cl)cc2)CCC/C1=C\c1ccccc1[N+](=O)[O-] is ___
> 400 µM

Fill in: CC50 of O=C1/C(=C/c2ccccc2)CCC/C1=C\c1cccc([N+](=O)[O-])c1 is ___
25 µM

Fill in: CC50 of COc1cc(/C=C2\CCC/C(=C\c3ccccc3[N+](=O)[O-])C2=O)cc(OC)c1OC is ___
44 µM

Fill in: CC50 of O=C1/C(=C/c2ccc(Cl)cc2)CCC/C1=C\c1cccc([N+](=O)[O-])c1 is ___
39 µM
